Target: human recombinant adrenergic α2B receptor (Homo sapiens, UniProt P18089)
Construct: expressed in transfected cells; host or cells: CHO-K1 cells
Sequence (P18089 whole entry): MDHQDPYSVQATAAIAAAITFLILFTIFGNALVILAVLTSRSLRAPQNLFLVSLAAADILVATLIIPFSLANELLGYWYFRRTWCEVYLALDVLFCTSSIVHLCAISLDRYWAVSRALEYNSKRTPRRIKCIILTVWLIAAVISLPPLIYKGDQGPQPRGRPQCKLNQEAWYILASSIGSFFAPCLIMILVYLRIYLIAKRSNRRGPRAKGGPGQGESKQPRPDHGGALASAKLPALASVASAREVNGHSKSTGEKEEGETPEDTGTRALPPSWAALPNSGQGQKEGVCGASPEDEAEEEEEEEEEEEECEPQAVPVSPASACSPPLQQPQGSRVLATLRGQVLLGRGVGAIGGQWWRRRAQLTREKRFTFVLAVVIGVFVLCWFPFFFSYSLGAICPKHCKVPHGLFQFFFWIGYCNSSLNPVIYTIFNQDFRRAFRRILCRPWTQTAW
Experiment: Adrenergic α2B radioligand binding ([3H]Rauwolscine)
Conditions: 1 h; read-out: Percent Inhibition of ligand binding Adrenergic (1 μM ligand conc.) α2B
# maps each entry to its inhibition at 1 µM
Record the value in %, omitting the unit from your answer.

Consider the following illustrative entries.
# Compound, inhibition at 1 µM, %
rows = [
    ("C/C(=C/n1c2c(c3cc(C)ccc31)CCN(C)C2C)c1ccccc1F (centres unmarked)", 91),
    ("C/C(=C\\n1c2c(c3cc(C)ccc31)CCN(C)C2)c1ccc(Cl)cc1", 96),
    ("CCC1c2c(c3cc(Cl)ccc3n2CCc2ccc(F)cc2)CCN1C (centres unmarked)", 102),
    ("Cc1ccc2c(c1)c1c(n2CC(C)(O)c2ccc(F)cc2)CN(C)CC1 (centres unmarked)", 101),
]

// moving on: another record for inhibition at 1 µM
## Task Data request, read-out inhibition at 1 µM, for COc1ccc(C(O)Cn2c3c(c4cc(Cl)ccc42)CCN(C)C3)cc1OC (centres unmarked)
## Result 77
